System: Glut4
Assay: Glut4 mRNA expression in adipocytes (real-time PCR)
Assay type: cell-based, human
Conditions: adipocytes, 250 nM oligomeric compound, day nine post-transfection, relative to control (1.0); Table 15
In the oligonucleotide strings, read from the 5' end, every base follows the letter of its sugar. An asterisk marks phosphorothioate; unmarked linkages are phosphodiester. Other units and linkages are bracketed, terminal groups are in braces. A string of capitals states the bases alone. e = 2'-O-(2-methoxyethyl) (MOE); [5mC] = 5-methylcytosine
Documented Glut4 (mRNA expression) across a set of substances
quantity_name: Glut4 (mRNA expression)

substance: 327913 (antisense eA*eA*e[5mC]*e[5mC]*eG*eA*eT*eT*eT*e[5mC]*eA*eA*eA*eT*eG*eG*eT*eG*e[5mC]*eT*eA*eG) [compound 327913]
quantity_name: Glut4 (mRNA expression)
result: 0.84
//
substance: 327933 (antisense eA*eA*eG*eG*eG*eA*eT*eT*e[5mC]*e[5mC]*eT*eG*eG*eG*eA*eA*eA*eA*e[5mC]*eT*eG*eG*eA*e[5mC]) [compound 327933]
quantity_name: Glut4 (mRNA expression)
result: 2.52
//
substance: 327922 (antisense eT*e[5mC]*eA*eG*eT*eT*eT*eT*eG*e[5mC]*eA*eT*eG*eG*eA*eT*eT*eT*eG*e[5mC]*eA*e[5mC]*eA) [compound 327922]
quantity_name: Glut4 (mRNA expression)
result: 1.75
//
substance: 327889 (antisense eG*eT*eG*eG*eT*eA*eA*eT*e[5mC]*e[5mC]*e[5mC]*eT*eG*eG*e[5mC]*eA*eA*eT*eG*eT*eG*eA*eT) [compound 327889]
quantity_name: Glut4 (mRNA expression)
result: 0.55
//
substance: 327954 (antisense eA*e[5mC]*eA*eA*eA*eG*eT*eT*e[5mC]*eT*eG*eT*eG*eA*eT*eG*e[5mC]*eA*e[5mC]*eT*eG*eA) [compound 327954]
quantity_name: Glut4 (mRNA expression)
result: 0.92
//
substance: 327941 (antisense eA*eA*e[5mC]*e[5mC]*e[5mC]*eA*e[5mC]*e[5mC]*eG*eA*e[5mC]*eA*eG*e[5mC]*eA*eA*eT*eG*eA*eA*eT*eG*eT*eT) [compound 327941]
quantity_name: Glut4 (mRNA expression)
result: 2.07
//
substance: 327934 (antisense eG*eG*eT*eA*e[5mC]*eA*eA*eT*e[5mC]*eA*eA*e[5mC]*eG*eG*eT*e[5mC]*eG*eA*eT*eG*eG*eT) [compound 327934]
quantity_name: Glut4 (mRNA expression)
result: 1.22
//
substance: 327876 (antisense eA*eA*e[5mC]*eA*e[5mC]*eT*eG*eA*eT*eT*eT*e[5mC]*eA*eA*eA*eT*eG*eG*eT*eG*e[5mC]*eT*eA) [compound 327876]
quantity_name: Glut4 (mRNA expression)
result: 0.36
//
substance: 327880 (antisense eA*e[5mC]*eA*eA*eA*eT*eT*e[5mC]*eG*eG*eT*eT*e[5mC]*eT*eA*e[5mC]*eA*eG*eG*eG*eT*eA) [compound 327880]
quantity_name: Glut4 (mRNA expression)
result: 1.11
//
substance: 327901 (antisense eT*eG*eA*eG*e[5mC]*eT*eA*e[5mC]*eA*eG*eT*eG*e[5mC]*eT*eT*e[5mC]*eA*eT*e[5mC]*eT*e[5mC]*eA) [compound 327901]
quantity_name: Glut4 (mRNA expression)
result: 0.19
//
substance: 327878 (antisense e[5mC]*eT*eA*eG*eT*eG*eG*eT*e[5mC]*e[5mC]*eT*eA*eA*eA*e[5mC]*eA*eT*eT*eT*e[5mC]*eA*e[5mC]) [compound 327878]
quantity_name: Glut4 (mRNA expression)
result: 0.69
//
substance: 327903 (antisense eA*eA*e[5mC]*eT*eA*eT*eA*e[5mC]*eA*eA*e[5mC]*e[5mC]*eT*eA*e[5mC]*eT*eA*e[5mC]*e[5mC]*eT*e[5mC]*eA) [compound 327903]
quantity_name: Glut4 (mRNA expression)
result: 1.72
//
substance: 327925 (antisense eT*eA*eG*e[5mC]*eT*eG*eG*eT*eT*eG*eA*eA*eG*eG*eG*eG*eA*e[5mC]*e[5mC]*eA*eA) [compound 327925]
quantity_name: Glut4 (mRNA expression)
result: 1.99
//
substance: 327905 (antisense e[5mC]*eA*eG*eA*e[5mC]*eT*e[5mC]*e[5mC]*eG*eG*eT*eG*eG*eA*eA*eT*eG*eA*eA*eG*eG*eA) [compound 327905]
quantity_name: Glut4 (mRNA expression)
result: 0.84
//
substance: 327890 (antisense eA*eG*e[5mC]*eA*e[5mC]*eA*eA*eA*e[5mC]*eT*eA*e[5mC]*eT*eA*e[5mC]*e[5mC]*eT*e[5mC]*eA) [compound 327890]
quantity_name: Glut4 (mRNA expression)
result: 1.10
